- target: T1, extracellular domain of human CD79b (human, UniProt P40259 29-159)
- T1 construct: also called huCD79becd; huCD79b-ecd
- T1 sequence: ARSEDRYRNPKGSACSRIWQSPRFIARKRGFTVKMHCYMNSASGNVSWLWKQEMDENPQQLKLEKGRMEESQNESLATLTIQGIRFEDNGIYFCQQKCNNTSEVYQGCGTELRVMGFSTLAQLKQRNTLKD
- test.summary: phage selection, Fab on phage, plate-bound huCD79becd
observation.type: binding result

binder	observation.type	recorded.measurement
huMA79b graft variant SEQ ID NO: 83 (Fab, name in Kabat numbering, V domains shown, Fab on phage; rest as huMA79b graft) VH: EVQLVESGGGLVQPGGSLRLSCAASGYPFNGYWINWVRQAPGKGLEWVGEILPGGGDTNYNEIFKGRFTISADTSKNTAYLQMNSLRAEDTAVYYCTRRVPVYFDYWGQGTLVTVSS VL: DIQMTQSPSSLSASVGDRVTITCKASQSVDYDGDSFLNWYQQKPGKAPKLLIYAASNLESGVPSRFSGSGSGTDFTLTISSLQPEDFATYYCQQSNEDPLTFGQGTKVEIKR	binding result	binds
huMA79b graft variant SEQ ID NO: 77 (Fab, name in Kabat numbering, V domains shown, Fab on phage; rest as huMA79b graft) VH: EVQLVESGGGLVQPGGSLRLSCAASGYPFTRYWIEWVRQAPGKGLEWVGEILPGGGDTNYNEIFKGRFTISADTSKNTAYLQMNSLRAEDTAVYYCTRRVPVYFDYWGQGTLVTVSS VL: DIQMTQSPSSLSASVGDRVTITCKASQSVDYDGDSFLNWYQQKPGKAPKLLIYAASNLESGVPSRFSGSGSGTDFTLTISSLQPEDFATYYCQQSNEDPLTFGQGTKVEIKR	binding result	binds
huMA79b graft variant SEQ ID NO: 63 (Fab, name in Kabat numbering, V domains shown, Fab on phage; rest as huMA79b graft) VH: EVQLVESGGGLVQPGGSLRLSCAASGYTFKKYWIEWVRQAPGKGLEWVGEILPGGGDTNYNEIFKGRFTISADTSKNTAYLQMNSLRAEDTAVYYCTRRVPVYFDYWGQGTLVTVSS VL: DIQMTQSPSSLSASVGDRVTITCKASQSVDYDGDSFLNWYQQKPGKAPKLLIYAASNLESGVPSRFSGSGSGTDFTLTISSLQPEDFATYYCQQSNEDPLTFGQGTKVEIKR	binding result	binds
